Measured values drawn from ChEMBL document CHEMBL3885861 for this set.

# Species on record: Rattus norvegicus
# Procedure Details: Open TG-GATES - Regimen: Daily Repeat
# Type: toxicity, organism-based, Sprague-Dawley
# Parameters: regimen Daily Repeat, gender Male, age 6 weeks
# Condition Label: in vivo, po, 0 mg/kg, […], tissue Blood, route gavage, dose level Control, time 28 day
Test Readout: Lym (%)
Give the quantity in %, number only.

Worked examples, 6 compounds total:
Cc1nnc2n1-c1ccc(Cl)cc1C(c1ccccc1Cl)=NC2 | 79.6
CC(C)NNC(=O)c1ccncc1 | 81.6
NC1=NC(=O)C(c2ccccc2)O1 (configuration not stated) | 82.2
COC(=O)C1=C(C)NC(C)=C(C(=O)OC)C1c1ccccc1[N+](=O)[O-] | 80.2
CN/C(=N/CCSCc1nc[nH]c1C)NC#N | 79.2
CNC(=C[N+](=O)[O-])NCCSCc1ccc(CN(C)C)o1 | 77.8

Please indicate Lym recorded for "Brc1ccccc1"
79.4

----------
# Organism: Rattus norvegicus
# Procedure Details: Open TG-GATES - Regimen: Single
# Type: toxicity, organism-based, Sprague-Dawley
# Parameters: regimen Single, gender Male, age 6 weeks
# Condition Label: in vivo, po, 0 mg/kg, 24 h, tissue Plasma, route gavage, dose level Control
DBIL vs 0.008 mg/dL: less than gives 1 (yes); not less than gives 0 (no).

# TODO verify DBIL < 0.008 mg/dL strictly for this compound: NC1=NC(=O)C(c2ccccc2)O1 (stereo unspecified)
0 (no)

Is 0.008 mg/dL strictly greater than the compound's reported DBIL? compound: "CN/C(=N/CCSCc1nc[nH]c1C)NC#N"
0 (no)

Is DBIL of "CNC(=C[N+](=O)[O-])NCCSCc1ccc(CN(C)C)o1" strictly below 0.008 mg/dL?
0 (no)

Threshold test, DBIL < 0.008 mg/dL: "CC(C)NNC(=O)c1ccncc1"
1 (yes)

Given the entry CS(=O)(=O)O.Cc1ccc(NC(=O)c2ccc(CN3CCN(C)CC3)cc2)cc1Nc1nccc(-c2cccnc2)n1 [IMATINIB MESYLATE] , would its reported DBIL be below 0.008 mg/dL?
1 (yes)

----------
Measured Plat, listed per entry.
# Species: Rattus norvegicus
# Procedure Details: Open TG-GATES - Regimen: Single
# Type: toxicity, organism-based, Sprague-Dawley
# Set-up: regimen Single, gender Male, age 6 weeks
# Condition Label: in vivo, po, 0 mg/kg, 6 h, tissue Blood, route gavage, dose level Control
Report the figure in x10_4/uL without appending any unit label.

Below, 6 compounds whose answers are already recorded.
Brc1ccccc1 [BROMOBENZENE] | 109.8
CCOc1ccc(NC(C)=O)cc1 [PHENACETIN] | 119.9
O=C(OC[C@H]1O[C@@H](OC(=O)c2cc(O)c(O)c(OC(=O)c3cc(O)c(O)c(O)c3)c2)[C@H](OC(=O)c2cc(O)c(O)c(OC(=O)c3cc(O)c(O)c(O)c3)c2)[C@@H](OC(=O)c2cc(O)c(O)c(OC(=O)c3cc(O)c(O)c(O)c3)c2)[C@@H]1OC(=O)c1cc(O)c(O)c(OC(=O)c2cc(O)c(O)c(O)c2)c1)c1cc(O)c(O)c(OC(=O)c2cc(O)c(O)c(O)c2)c1 [TANNIC ACID] | 117.4
NC1=NC(=O)C(c2ccccc2)O1 (configuration not stated) [PEMOLINE] | 117
CCCc1cc(=O)[nH]c(=S)[nH]1 [PROPYLTHIOURACIL] | 107.1
CN(C)CCC(c1ccc(Cl)cc1)c1ccccn1 (configuration not stated) [CHLORPHENIRAMINE] | 117.5

Then this compound:
// fetch Plat given entry CN/C(=N/CCSCc1nc[nH]c1C)NC#N [CIMETIDINE]
127.2
